UniProt Q75Z89: recorded pIC50 for assorted compounds
Reminder that pIC50 is minus the log10 of a molar concentration.

Ask | Let me know recorded pIC50 for "C=CCN1CCN(c2nc3cccnc3n3cccc23)CC1" , thanks.
Reply | 4.60

Ask | Let me know recorded pIC50 for "Fc1ccc(CN2CCN(c3nc4ccccc4n4cccc34)CC2)cc1" , thanks.
Reply | 4.33

Ask | Let me know recorded pIC50 for "c1ccc(CN2CCN(c3nc4cccnc4n4cccc34)CC2)cc1" , thanks.
Reply | 4.82

Ask | Let me know recorded pIC50 for "c1ccc(CN2CCN(c3ncccc3-n3cccc3)CC2)cc1" , thanks.
Reply | 5.13

---

# TARGET: 5-hydroxytryptamine receptor 1D (Sus scrofa)
# Sequence (P79400 whole entry): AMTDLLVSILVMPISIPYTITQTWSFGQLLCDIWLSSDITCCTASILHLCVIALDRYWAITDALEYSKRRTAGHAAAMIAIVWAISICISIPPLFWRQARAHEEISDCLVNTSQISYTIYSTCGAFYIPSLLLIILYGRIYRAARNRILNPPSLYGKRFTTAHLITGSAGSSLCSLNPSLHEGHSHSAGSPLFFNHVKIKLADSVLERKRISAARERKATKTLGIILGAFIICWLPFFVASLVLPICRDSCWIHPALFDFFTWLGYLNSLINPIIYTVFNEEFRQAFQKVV
Provide the reported IC50 of each item.
Number in µM, nothing else.

Ask | Let me know recorded IC50 for "C=CCN1CCN(c2nc3cccnc3n3cccc23)CC1" , thanks.
Reply | 0.955

Ask | Let me know recorded IC50 for "c1ccc(CN2CCN(c3ncccc3-n3cccc3)CC2)cc1" , thanks.
Reply | 11

Ask | Let me know recorded IC50 for "Clc1ccc2c(c1)nc(N1CCN(Cc3ccc4c(c3)OCO4)CC1)c1cccn12" , thanks.
Reply | 46.8

---

# TARGET: Serotonin 3 (5-HT3) receptor
# PROTOCOL DETAILS: Binding affinity against 5-hydroxytryptamine 3 receptor was measured using [3H]granisetron as radioligand
# Type: protein-complex assay
READOUT: -Log IC50

Ask | Let me know recorded -Log IC50 for "Fc1ccc(CN2CCN(c3nc4sccc4n4cccc34)CC2)cc1" , thanks.
Reply | 8.93

Ask | Let me know recorded -Log IC50 for "Fc1ccc(CN2CCN(c3nc4ccccc4n4cccc34)CC2)cc1" , thanks.
Reply | 8.62

Ask | Let me know recorded -Log IC50 for "Clc1ccc2nc(N3CCN(Cc4ccccc4)CC3)c3cccn3c2c1" , thanks.
Reply | 7.69

Ask | Let me know recorded -Log IC50 for "Clc1ccc2c(c1)nc(N1CCN(Cc3ccccc3)CC1)c1cccn12" , thanks.
Reply | 9.54

Ask | Let me know recorded -Log IC50 for "COc1ccc2nc(N3CCN(Cc4ccc(F)cc4)CC3)c3cccn3c2n1" , thanks.
Reply | 6.93

Ask | Let me know recorded -Log IC50 for "Cc1ccnc2c1nc(N1CCN(Cc3ccc(F)cc3)CC1)c1cccn12" , thanks.
Reply | < 4

Ask | Let me know recorded -Log IC50 for "c1cnc2ccc3nc(N4CCN(Cc5ccc6c(c5)OCO6)CC4)c4cccn4c3c2c1" , thanks.
Reply | 7.55

Ask | Let me know recorded -Log IC50 for "COc1ccc2nc(N3CCN(Cc4ccccc4)CC3)c3cccn3c2n1" , thanks.
Reply | 7.85

Ask | Let me know recorded -Log IC50 for "c1ccc(N2CCN(c3nc4cccnc4n4cccc34)CC2)cc1" , thanks.
Reply | 4.56

Ask | Let me know recorded -Log IC50 for "c1ccc(CN2CCN(c3nc4ccccc4n4cccc34)CC2)cc1" , thanks.
Reply | 9.45

Ask | Let me know recorded -Log IC50 for "COc1ccc2c(c1)nc(N1CCN(CCCCn3cccn3)CC1)c1cccn12" , thanks.
Reply | < 4

Ask | Let me know recorded -Log IC50 for "c1ccc(CN2CCN(c3ccc4nc(N5CCN(Cc6ccccc6)CC5)c5cccn5c4n3)CC2)cc1" , thanks.
Reply | 7.06

Ask | Let me know recorded -Log IC50 for "Fc1ccc(CN2CCN(Cc3nc4ccccc4n4cccc34)CC2)cc1" , thanks.
Reply | 5.59

Ask | Let me know recorded -Log IC50 for "CN1CCN(c2nc3cccnc3n3cccc23)CC1" , thanks.
Reply | 9.01

Ask | Let me know recorded -Log IC50 for "COc1ccc2c(c1)nc(N1CCN(Cc3ccc(F)cc3)CC1)c1cccn12" , thanks.
Reply | 8.18

Ask | Let me know recorded -Log IC50 for "CN1CCN(c2nc3cc(C(F)(F)F)ccc3n3cccc23)CC1" , thanks.
Reply | 5.88

Ask | Let me know recorded -Log IC50 for "Cc1ccnc2c1nc(N1CCN(Cc3ccccc3)CC1)c1cccn12" , thanks.
Reply | 5.52

---

# Test system: Rattus norvegicus
# PROTOCOL DETAILS: In Vivo 5-HT3 agonist activity in the Von Bezold-Jarisch reflex decrease in heart rate in rats at 120 (ug/kg) dose.
# Type: functional
READOUT: Inhibition (%)
Number in %, nothing else.

Ask | Enter measured Inhibition, system Rattus norvegicus, for the compound shown: "c1ccc(CN2CCN(c3nc4cccnc4n4cccc34)CC2)cc1"
Reply | 59

Ask | Enter measured Inhibition, system Rattus norvegicus, for the compound shown: "Clc1ccc2c(c1)nc(N1CCN(Cc3ccccc3)CC1)c1cccn12"
Reply | 0

Ask | Enter measured Inhibition, system Rattus norvegicus, for the compound shown: "c1ccc(CN2CCN(c3nc4ccsc4n4cccc34)CC2)cc1"
Reply | 40

Ask | Enter measured Inhibition, system Rattus norvegicus, for the compound shown: "COc1ccc2c(c1)nc(N1CCN(Cc3ccc(F)cc3)CC1)c1cccn12"
Reply | 0

---

Provide the reported pIC50 of each item.
pIC50: −log10 of the molar value.

Ask | Enter measured pIC50, system 5-hydroxytryptamine receptor 1D (Sus scrofa, UniProt P79400), for the compound shown: "c1ccc(CN2CCN(c3nc4ccc5ncccc5c4n4cccc34)CC2)cc1"
Reply | < 4.00

Ask | Enter measured pIC50, system 5-hydroxytryptamine receptor 1D (Sus scrofa, UniProt P79400), for the compound shown: "Cc1ccc2c(c1)nc(N1CCN(Cc3ccc(F)cc3)CC1)c1cccn12"
Reply | < 4.00

Ask | Enter measured pIC50, system 5-hydroxytryptamine receptor 1D (Sus scrofa, UniProt P79400), for the compound shown: "COc1ccc2c(c1)nc(N1CCN(Cc3ccc(F)cc3)CC1)c1cccn12"
Reply | < 4.00

---

READOUT: IC50

Ask | Enter measured IC50, system 5-hydroxytryptamine receptor 2A (Bos taurus, UniProt Q75Z89), for the molecule shown: "c1ccc(N2CCN(c3nc4cccnc4n4cccc34)CC2)cc1"
Reply | > 100 µM

Ask | Enter measured IC50, system 5-hydroxytryptamine receptor 2A (Bos taurus, UniProt Q75Z89), for the molecule shown: "Cc1ccc2c(c1)nc(N1CCN(Cc3ccc(F)cc3)CC1)c1cccn12"
Reply | > 100 µM

Ask | Enter measured IC50, system 5-hydroxytryptamine receptor 2A (Bos taurus, UniProt Q75Z89), for the molecule shown: "Clc1ccc2nc(N3CCN(Cc4ccccc4)CC3)c3cccn3c2c1"
Reply | > 100 µM

---

# TARGET: 5-hydroxytryptamine receptor 1D (Sus scrofa)
pIC50: −log10 of the molar value.
Provide the reported pIC50 of each item.

Ask | Let me know recorded pIC50 for "c1cnc2c(c1)nc(N1CCN(Cc3ccc4c(c3)OCO4)CC1)c1cccn12" , thanks.
Reply | < 4.00

Ask | Let me know recorded pIC50 for "Fc1ccc(CN2CCN(c3nc4ccccc4n4cccc34)CC2)cc1" , thanks.
Reply | < 4.00

Ask | Let me know recorded pIC50 for "Cc1ccnc2c1nc(N1CCN(Cc3ccccc3)CC1)c1cccn12" , thanks.
Reply | < 4.00
